Test system: Enterococcus sp.
experiment-notes: in vitro antibacterial evaluation, MIC by broth dilution
Assay type: cell-based
test-conditions: broth dilution, 18 hours at 35° C.
I'd appreciate it if you could supply MIC Enterococcus faecalis (GC 3059) values for the items below.
One number for each entry, in µg/mL.

>>> observed_result("CCCCCCCN1CC(C(O)C2NC(=O)C(C(O)C3CNC(=N)N3)NC(=O)C(Cc3ccc(OC4OC(CO)C(OC5OC6COC7(OC6C(O)C5O)C5CC6CC(C5)CC7C6)C(O)C4O)cc3)NC(=O)C(C(C)c3ccccc3)NC(=O)CNC(=O)C(CO)NC2=O)N(C2OC(CO)C(O)C(O)C2O)C1=N (stereo not shown)")
4

Exercise: Recall the reported MIC Enterococcus faecalis (GC 3059) of CC(c1ccccc1)C1NC(=O)CNC(=O)C(CO[Si](C)(C)C(C)(C)C)NC(=O)C(C(O)C2CNC(=N)N2C2OC3COC(C)(C)OC3C3OC(C)(C)OC32)NC(=O)C(C(O)C2CNC(=N)N2)NC(=O)C(Cc2ccc(O)cc2)NC1=O (stereo not shown) when tested on Enterococcus sp..
Solution: 128
